Cytochrome P450 3A4 (Homo sapiens): reported AC50 for various molecules.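 Note: CYP3A4 tested as one member of a cytochrome P450 panel screen.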
Sequence (P08684 whole entry): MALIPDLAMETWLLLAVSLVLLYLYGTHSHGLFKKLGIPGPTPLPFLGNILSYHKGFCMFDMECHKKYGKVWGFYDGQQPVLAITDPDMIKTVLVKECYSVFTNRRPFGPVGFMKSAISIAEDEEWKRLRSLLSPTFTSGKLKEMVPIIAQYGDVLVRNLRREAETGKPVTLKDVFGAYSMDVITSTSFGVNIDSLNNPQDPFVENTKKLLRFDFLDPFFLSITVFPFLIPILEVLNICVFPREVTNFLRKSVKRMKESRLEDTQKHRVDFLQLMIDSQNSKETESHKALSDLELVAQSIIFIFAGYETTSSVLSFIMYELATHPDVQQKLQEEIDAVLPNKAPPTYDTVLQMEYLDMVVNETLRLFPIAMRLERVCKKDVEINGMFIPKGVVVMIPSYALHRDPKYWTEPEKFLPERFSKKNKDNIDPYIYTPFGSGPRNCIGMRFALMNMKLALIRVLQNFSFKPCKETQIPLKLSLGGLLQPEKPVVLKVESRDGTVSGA

>  <Molecule>
Cc1ccc(NC(S)=Nc2ccc(Br)cc2)cc1

>  <AC50>
14.1 µM (inconclusive)

$$$$
>  <Molecule>
CCNc1ncc2nc(C)c(=O)n(Cc3ccc(F)cc3)c2n1

>  <AC50>
7.94 µM (inconclusive)

$$$$
>  <Molecule>
COc1ccccc1NC(=O)CC1COc2ccccc2O1 (centres undefined)

>  <AC50>
14.1 µM (inconclusive)

$$$$
>  <Molecule>
CN(C)c1ncc2nc(CCc3ccccc3)c(=O)n(C3CC3)c2n1

>  <AC50>
10 µM (inconclusive)

$$$$
>  <Molecule>
Cc1noc(C)c1-c1cc(Nc2ccc(F)cc2)ncn1

>  <AC50>
20 µM (inconclusive)

$$$$
>  <Molecule>
O=c1c(-c2cccc(F)c2)nc2cncnc2n1Cc1ccccc1Cl

>  <AC50>
15.8 µM (inconclusive)

$$$$
>  <Molecule>
CNc1oc(-c2cccs2)nc1C#N

>  <AC50>
28.2 µM (inconclusive)

$$$$
>  <Molecule>
COC(=O)c1ccc2ccn(CC(=O)NC3CCCCC3)c2c1

>  <AC50>
4.47 µM (inconclusive)

$$$$
>  <Molecule>
O=C(CCNC(=O)c1ccccc1)OCN1C(=O)c2ccccc2C1=O

>  <AC50>
15.8 µM (inconclusive)

$$$$

---

Experimental system: SUMO-activating enzyme (Homo sapiens)
Sequence (Q9UBE0 whole entry): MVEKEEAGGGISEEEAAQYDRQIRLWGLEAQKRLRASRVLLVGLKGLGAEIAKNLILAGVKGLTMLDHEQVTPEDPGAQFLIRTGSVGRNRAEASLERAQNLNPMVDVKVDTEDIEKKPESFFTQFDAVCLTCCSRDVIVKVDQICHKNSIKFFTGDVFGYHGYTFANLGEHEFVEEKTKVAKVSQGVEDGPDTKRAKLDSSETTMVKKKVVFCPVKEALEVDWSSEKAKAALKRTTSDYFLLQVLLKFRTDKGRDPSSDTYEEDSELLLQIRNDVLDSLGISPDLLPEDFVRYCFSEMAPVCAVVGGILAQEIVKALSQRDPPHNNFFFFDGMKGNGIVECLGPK
Sequence (Q9UBT2 whole entry): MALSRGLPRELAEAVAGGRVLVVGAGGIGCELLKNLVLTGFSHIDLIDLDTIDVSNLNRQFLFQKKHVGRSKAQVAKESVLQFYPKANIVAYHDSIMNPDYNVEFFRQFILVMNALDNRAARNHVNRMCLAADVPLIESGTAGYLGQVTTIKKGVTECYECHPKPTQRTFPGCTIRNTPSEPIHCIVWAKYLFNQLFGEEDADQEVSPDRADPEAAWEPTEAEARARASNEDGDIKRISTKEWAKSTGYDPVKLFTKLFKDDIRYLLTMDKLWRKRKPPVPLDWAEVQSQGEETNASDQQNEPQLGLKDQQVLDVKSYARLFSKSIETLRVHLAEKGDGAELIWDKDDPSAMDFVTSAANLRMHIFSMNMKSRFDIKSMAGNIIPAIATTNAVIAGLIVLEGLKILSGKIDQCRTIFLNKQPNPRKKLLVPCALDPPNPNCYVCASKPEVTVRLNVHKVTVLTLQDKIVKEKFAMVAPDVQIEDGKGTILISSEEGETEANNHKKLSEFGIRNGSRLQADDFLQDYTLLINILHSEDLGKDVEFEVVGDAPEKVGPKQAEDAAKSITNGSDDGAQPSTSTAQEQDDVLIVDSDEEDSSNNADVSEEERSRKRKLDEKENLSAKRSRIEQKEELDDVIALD
Experiment: SUMOylation inhibitor hit validation, confirmation, SUMOylation inhibitor project, biochemical, AlphaScreen (AID 2018)
Format: functional
Activity calls are given as the source filed them.
Property: IC50

>  <Molecule>
Cc1ccccc1C(=O)Nc1cccc(C(=O)N/N=C/c2cc(Cl)cc([N+](=O)[O-])c2O)c1

>  <Observed value>
6.22 µM (active)

$$$$
>  <Molecule>
O=c1c(C(c2ccccc2)c2c(O)sc3ccccc3c2=O)c(O)sc2ccccc12

>  <Observed value>
4.11 µM (active)

$$$$
>  <Molecule>
O=C(Nc1nnc(-c2ccccc2SCc2ccccc2)s1)Nc1ccccc1F

>  <Observed value>
46.5 µM (active)

$$$$
>  <Molecule>
CC(=O)Nc1ccc(NC2=C/C(=N/S(=O)(=O)c3cccs3)c3ccccc3C2=O)cc1

>  <Observed value>
1.34 µM (active)

$$$$
>  <Molecule>
NC(=O)CC(NC(=O)Cc1cccc2ccccc12)c1ccc(NC2CCCCCC2)c([N+](=O)[O-])c1 (stereo not given)

>  <Observed value>
> 100 µM (inactive)

$$$$

---

Experimental system: UniProt:Q9NXA8
Sequence (Q9NXA8 whole entry): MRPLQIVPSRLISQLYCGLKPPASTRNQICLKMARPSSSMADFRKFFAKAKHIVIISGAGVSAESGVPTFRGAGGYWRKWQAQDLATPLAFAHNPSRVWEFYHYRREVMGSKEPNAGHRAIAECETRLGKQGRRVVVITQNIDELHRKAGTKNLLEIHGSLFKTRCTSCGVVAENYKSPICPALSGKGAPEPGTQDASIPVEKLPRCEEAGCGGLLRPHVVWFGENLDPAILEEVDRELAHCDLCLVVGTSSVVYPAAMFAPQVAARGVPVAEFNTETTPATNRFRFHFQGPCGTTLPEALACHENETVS
Experiment: SIRT5 desuccinylase inhibitors, dose response, biochemical, fluorescence imaging, cherry-pick, set 5 (AID 720591);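 note: desuccinylation of succinyl peptide AMC substrate read as fluorescence after trypsin release; potency of inhibitors that lower fluorescence and may act on trypsin instead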
Active and inactive are the calls of the source.
Possible outcomes: 1 (active), -1 (inactive)

>  <Compound>
Cc1ccc(CCN2CC(C(=O)NCCN(C)C)CC2=O)cc1 (centres undefined)

>  <Class name>
-1

$$$$
>  <Compound>
CCN(CC(=O)Nc1ccccc1C(F)(F)F)C(=O)c1ccc2c(=O)n3c(nc2c1)CCC3

>  <Class name>
-1

$$$$
>  <Compound>
Cc1ccc(Cn2c(N3CCNCC3)nc3c2c(=O)[nH]c(=O)n3C)cc1

>  <Class name>
1

$$$$
>  <Compound>
C[C@H](CO)N1C[C@H](C)[C@H](CN(C)C(=O)Nc2cccc3ccccc23)OCc2cnnn2CCCC1=O

>  <Class name>
1

$$$$

---

Experimental system: Heat shock protein HSP 90-alpha (Homo sapiens, UniProt P07900)
Type: functional, organism-based
Calls of active or inactive are those of the source.
Here the recorded AC50 is given for each entry.

>  <Structure>
CCc1ccc2c(c1)/C(=C/C(=O)c1cccs1)C(=O)N2

>  <AC50>
4.18 µM (active)

$$$$
>  <Structure>
O=C(/C=C/c1ccnc2ccccc12)c1cccs1

>  <AC50>
5.63 µM (active)

$$$$
>  <Structure>
O=C(c1ccc(Cl)cc1)N1CCN(c2ccc(F)cc2)CC1

>  <AC50>
5.2 µM (active)

$$$$
>  <Structure>
CCOC(=O)c1cc([N+](=O)[O-])c([N+](=O)[O-])cc1NC(C)=O

>  <AC50>
2.59 µM (active)

$$$$
>  <Structure>
O=[N+]([O-])c1cc(Cc2ccccc2)cc(/C=N/c2ccc(N3CCOCC3)cc2)c1O

>  <AC50>
4.32 µM (active)

$$$$
>  <Structure>
O=C(OC12CC3CC(CC(C3)C1)C2)c1ccc(NCc2cc(O)ccc2O)cc1

>  <AC50>
5.15 µM (active)

$$$$

---

Experiment: inhibitors of intracellular T. cruzi replication, confirmation, NIH3T3 host cells, beta-gal luminescence (AID 2044);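 note: intracellular parasites grown in NIH/3T3 mouse fibroblasts as host cells; luminescent beta-galactosidase reporter signal from transgenic T. cruzi replicating inside host cells; inhibitors lower the luminescence signal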
Format: functional, cell-based
The source made the active and inactive calls.
Here the recorded EC50 is given for each entry.

>  <Compound>
CCCCN(CC)CCCNC(=O)C1CCN(c2ncnc3c2sc2cccc(F)c23)CC1

>  <EC50>
< 100 nM (active)

$$$$
>  <Compound>
Cc1cc(Cl)c(OCCCNCc2ccccc2)c(Br)c1

>  <EC50>
1860 nM (active)

$$$$
>  <Compound>
N#CC1=C(N)OC2=C(C(=O)CC(c3ccccc3)C2)C1c1cccnc1 (centres undefined)

>  <EC50>
111 nM (active)

$$$$
>  <Compound>
COc1cc(/C=C(/C#N)c2ccc(C)cc2)ccc1Oc1ccc([N+](=O)[O-])cn1

>  <EC50>
1540 nM (active)

$$$$

---

Here the recorded EC50 is given for each entry.
Experiment: inhibitors of SNCA 5'UTR-driven reporter translation, confirmation, H4 neuroglioma cells, luminescence (AID 1988)
Type: functional, cell-based
Active and inactive are the calls of the source.

>  <Structure>
Cc1ccccc1-n1nc2c(c1NC(=O)C1CCCC1)CS(=O)(=O)C2

>  <EC50>
> 120 µM (not active)

$$$$
>  <Structure>
Cc1ccc(-c2cc(-c3ccc(F)cc3)nc(N)c2C#N)o1

>  <EC50>
49.7 µM (active)

$$$$
>  <Structure>
CC(C)c1nnc(NC(=O)CC(=O)Nc2ccccc2C(=O)O)s1

>  <EC50>
11.3 µM (active)

$$$$
>  <Structure>
CC(=O)O[C@@H]1/C=C/[C@](C)(O)C[C@@H](C)C/C=C/[C@H]2[C@H](O)C(C)=C(C)[C@H]3[C@H](Cc4ccccc4)NC(=O)[C@@]123

>  <EC50>
< 0.1 µM (active)

$$$$

---

Experiment: control 3'UTR Renilla luciferase suppression, dose response, counter-screen for Shn3 inhibitor project, cell-based, Clone20-Shn3RL, cherry-picked (AID 624133)
Format: functional
Calls of active or inactive are those of the source.
Property: AC50

>  <Structure>
Cc1cc(F)ccc1S(=O)(=O)Nc1ccccc1C(=O)Nc1ccccc1-c1nc2ccccc2[nH]1

>  <Property>
AC50

>  <Observed value>
9690 nM (active)

$$$$
>  <Structure>
Clc1ccc(C[n+]2cc(-c3ccccc3)n3c2CCCCC3)c(Cl)c1

>  <Property>
AC50

>  <Observed value>
1210 nM (active)

$$$$
>  <Structure>
O=C(OC12CC3CC(CC(C3)C1)C2)c1ccc(NCc2cc(O)ccc2O)cc1

>  <Property>
AC50

>  <Observed value>
3990 nM (active)

$$$$
>  <Structure>
COc1ccc(CCNc2ncnc3sccc23)cc1OC

>  <Property>
AC50

>  <Observed value>
1500 nM (active)

$$$$
>  <Structure>
CCn1/c(=N\C(=O)CS(=O)(=O)c2ccccc2)sc2cccc(OC)c21

>  <Property>
AC50

>  <Observed value>
1580 nM (active)

$$$$
>  <Structure>
Oc1c(CN2CCCCC2)ccc2cccnc12

>  <Property>
AC50

>  <Observed value>
3770 nM (active)

$$$$

---

Experimental system: Eukaryotic translation initiation factor 4E (Mus musculus)
Sequence (P63073 whole entry): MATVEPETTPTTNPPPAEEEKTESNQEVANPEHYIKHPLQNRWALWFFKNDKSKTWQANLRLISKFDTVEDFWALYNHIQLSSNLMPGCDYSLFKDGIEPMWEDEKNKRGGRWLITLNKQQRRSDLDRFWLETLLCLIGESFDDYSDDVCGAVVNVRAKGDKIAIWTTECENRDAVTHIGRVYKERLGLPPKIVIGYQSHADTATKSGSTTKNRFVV
Experiment: eIF4E–eIF4G protein interaction inhibitors, dose response, biochemical, TR-FRET (AID 855);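 note: potency for disrupting eIF4E binding to eIF4GI seen as loss of FRET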
Format: functional
Calls of active or inactive are those of the source.
Property: IC50

>  <Structure>
COc1ccc(C2=CSC3=NCCN23)cc1F

>  <Observed value>
> 64 µM (inactive)

$$$$
>  <Structure>
O=C(NCCc1ccncc1)c1ccccc1F

>  <Observed value>
> 64 µM (inactive)

$$$$
>  <Structure>
Cc1ccccc1C(=O)Nc1cccc(C(=O)N/N=C/c2cc(Cl)cc([N+](=O)[O-])c2O)c1

>  <Observed value>
50 µM (inactive)

$$$$
>  <Structure>
CC(C)CC(=O)N1CCN(Cc2cccc(F)c2)CC1

>  <Observed value>
> 64 µM (inactive)

$$$$

---

System: Streptococcus
Experiment: Group A Streptococcus viability loss, dose response, counter-screen for streptokinase expression inhibitor project, luminescence, BacTiterGlo (AID 1915);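 note: potency for reduction of bacterial viability or growth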
Type: functional, organism-based
Active and inactive are the calls of the source.

>  <Compound>
COc1ccc(CC(=O)N/N=C/c2cc([N+](=O)[O-])cc(Br)c2O)cc1

>  <EC50>
6.89 µM (active)

$$$$
>  <Compound>
Cc1c(Cl)cnn1CC(=O)NC1C(=O)N2C(C(=O)O)=C(CSc3nnnn3C)CSC12 (stereo unspecified)

>  <EC50>
0.283 µM (active)

$$$$
>  <Compound>
Cc1cc(NC(=O)/C=C/c2ccccc2Cl)n(-c2nc3ccccc3[nH]2)n1

>  <EC50>
> 150 µM (not active)

$$$$
>  <Compound>
Cc1cccc(NS(=O)(=O)c2ccc(C3CCCCC3)cc2)c1

>  <EC50>
6.98 µM (active)

$$$$
>  <Compound>
OC(COCC(F)(F)C(F)(F)C(F)(F)C(F)F)Cn1c2ccc(Cl)cc2c2cc(Cl)ccc21 (stereo unspecified)

>  <EC50>
2.62 µM (active)

$$$$
>  <Compound>
Cc1cc2occ(CC(=O)NC3=NCCS3)c2cc1C(C)C

>  <EC50>
> 150 µM (not active)

$$$$

Origin of measurements: ChEMBL document CHEMBL1201862
